Each item that follows carries a reported selectivity ratio.
# testDescription: Selectivity index, ratio of CC50 for cytotoxicity against human HepG2 2.2.15 cells to EC90 for antiviral activity against Hepatitis B virus ayw1 infected in human HepG2 2.2.15 cells
# Assay type: toxicity, cell-based
reportedEndpoint: selectivity ratio

cpdSmiles	testValue
Cc1nc(N2CC[N+]3(CCC[N+]4(CCNCC4)CC3)CC2)c([N+](=O)[O-])c(N2CC[N+]3(CCC[N+]4(CCNCC4)CC3)CC2)n1	> 2
Nc1ccn([C@@H]2CS[C@H](CO)O2)c(=O)n1	> 4
Cc1nc(N2CC[N+]3(CC2)CC[N+]2(CCNCC2)CC3)c(N)c(N2CC[N+]3(CC2)CC[N+]2(CCNCC2)CC3)n1	> 6
O=Cc1c(N2CC[N+]3(CC2)CC[N+]2(CCNCC2)CC3)nc(-c2ccccc2)nc1N1CC[N+]2(CC1)CC[N+]1(CCNCC1)CC2	> 4
Nc1c(N2CC[N+]3(CCC[N+]4(CCNCC4)CC3)CC2)ncnc1N1CC[N+]2(CCC[N+]3(CCNCC3)CC2)CC1	> 1
